molecular target: Full length SHP2 protein (Recombinant Human SHP-2) (Homo sapiens (Human), UniProt Q06124); test: SHP2 biochemical assay (DiFMUP substrate, activating peptide IRS1_2pY); conditions: activating peptide IRS1_2pY 140 nM, 60 min
Sequence (Q06124 2-593): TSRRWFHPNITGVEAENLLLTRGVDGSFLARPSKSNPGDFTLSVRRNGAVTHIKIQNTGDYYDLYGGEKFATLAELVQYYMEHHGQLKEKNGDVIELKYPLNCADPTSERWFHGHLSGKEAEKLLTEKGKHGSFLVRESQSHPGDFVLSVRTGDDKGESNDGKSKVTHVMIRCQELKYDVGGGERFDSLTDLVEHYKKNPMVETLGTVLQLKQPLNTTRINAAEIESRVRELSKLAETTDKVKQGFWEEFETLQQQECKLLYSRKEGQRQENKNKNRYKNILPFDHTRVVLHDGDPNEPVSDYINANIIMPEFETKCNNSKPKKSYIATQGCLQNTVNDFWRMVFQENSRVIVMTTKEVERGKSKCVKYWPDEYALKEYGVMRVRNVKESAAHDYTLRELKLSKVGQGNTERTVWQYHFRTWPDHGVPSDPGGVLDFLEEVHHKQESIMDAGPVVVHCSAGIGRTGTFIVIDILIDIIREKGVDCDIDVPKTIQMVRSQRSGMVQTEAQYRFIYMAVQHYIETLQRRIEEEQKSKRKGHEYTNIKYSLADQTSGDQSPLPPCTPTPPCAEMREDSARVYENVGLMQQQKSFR
pIC50: −log10 of the molar value.
Decision: pIC50 >= 7 yields T, all other cases yield F.

Please indicate if the recorded pIC50 for Cc1c(N2CCC3(CCC[C@@H]3N)CC2)nc(N)n(-c2cccc(Cl)c2Cl)c1=O (atropisomer, axis not shown; (M)) [Compound 78c] meets or exceeds 7.
F

Then Cc1c(N2CCC3(CC2)Cc2ccccc2[C@H]3N)nc(C)n(-c2cccc(Cl)c2Cl)c1=O [Compound 74a] ?
T

Then Cc1c(N2CCC3(CCC[C@H]3N)CC2)nc(C)n(-c2cccc(Cl)c2Cl)c1=O (single isomer, unassigned) [Compound 67a] ?
F

Then Cc1c(N2C[C@H]3CC(CO)C[C@@]3(CN)C2)nc(C)n(-c2cccc(Cl)c2Cl)c1=O (stereo partly shown) ?
F

Then Cc1c(N2CCC3(CC2)Cc2ccccc2[C@@H]3N)nc(C)n(-c2cccc(Cl)c2Cl)c1=O (atropisomer, axis not shown; (M)) [Compound 74c] ?
F

Then C[C@@H]1OCC2(CCN(c3cc(=O)n(-c4cccc(Cl)c4Cl)c(C(F)F)n3)CC2)[C@@H]1N (atropisomer, axis not shown; (M)) [Compound 20b] ?
F

----------
test: Pharmacokinetics in female CD1 mice (oral / intravenous); type: in vivo; conditions: mouse, normalized to 1 mg/kg
Please provide measured AUC ng/ml*h (normalized to 1 mp/k) for the entries that follow.

Requested field: AUC ng/ml*h (normalized to 1 mp/k). Item: Cc1c(N2CCC3(CC2)Oc2ccccc2[C@H]3N)nc(C)n(-c2cccc(Cl)c2Cl)c1=O (single isomer, unassigned) [Compound 81b]
3270 ng·h/mL

Then Cc1c(N2CCC3(CC2)Cc2ccccc2[C@H]3N)nc(C)n(-c2cccc(Cl)c2Cl)c1=O [Compound 74a] ?
2108 ng·h/mL

Then Cc1c(N2CCC3(CC2)Cc2ncccc2[C@H]3N)nc(C)n(-c2cccc(Cl)c2Cl)c1=O (single isomer, unassigned) [Compound 66b] ?
2387 ng·h/mL

Then Cc1nc(N2CCC3(CC2)CO[C@@H](C)[C@H]3N)c(CO)nc1-c1cccc(Cl)c1Cl [RMC-4550, reference compound] ?
735 ng·h/mL

Then Cc1c(N2CCC3(CC2)CO[C@@H](C)[C@H]3N)nc(C)n(-c2cccc(Cl)c2Cl)c1=O (single isomer, unassigned) [Compound 23b] ?
1222 ng·h/mL

Then Cc1nc(N2CCC3(CC2)CO[C@@H](C)[C@H]3N)cc(=O)n1-c1cccc(Cl)c1Cl (single isomer, unassigned) ?
1765 ng·h/mL

----------
Tested on: pERK1/2 in KYSE520 cells
Assay: p-Erk cellular assay in KYSE520 (Mesoscale)
Assay type: cell-based
Conditions: Homo sapiens, KYSE-520, 2 h, read-out: pERK1/2 in Cell KYSE520 IC50
Procedure: The effect of SHP2 inhibitors on pERK level was assessed using phospho-specific antibody using Mesoscale quantification platform. For measuring change in pERK levels using mesoscale, 30,000 cells of KYSE520 cells were plated in 96-well tissue culture treated plate in 175 μl volume of media. […] The cells were then lysed in lysis buffer and processed and analyzed for p-ERK/ERK as per manufacturer's instructions (Mesoscale discovery, cat No. […]-3).
Please provide measured IC50 for the entries that follow.
Only the number, expressed in nM, is required.

Requested field: IC50. Item: Cc1c(N2CCC3(CC2)Oc2cnccc2C3N)nc(C)n(-c2cccc(Cl)c2Cl)c1=O (single isomer, unassigned) [Compound 80c]
420

Then Cc1c(N2CCC3(CCC[C@H]3N)CC2)nc(C)n(-c2cccc(Cl)c2Cl)c1=O (single isomer, unassigned) [Compound 67b] ?
198

Then "Cc1c(N2CCC3(CC2)c2ncccc2C[C@H]3N)nc(C)n(-c2cccc(Cl)c2Cl)c1=O" ?
824

----------
target: auto-activated mutant protein SHP2 E76K (Homo sapiens (Human), UniProt Q06124, E76K); assay: SHP2 E76K active mutant biochemical assay with and without activating peptide
Sequence (Q06124 whole entry E76K): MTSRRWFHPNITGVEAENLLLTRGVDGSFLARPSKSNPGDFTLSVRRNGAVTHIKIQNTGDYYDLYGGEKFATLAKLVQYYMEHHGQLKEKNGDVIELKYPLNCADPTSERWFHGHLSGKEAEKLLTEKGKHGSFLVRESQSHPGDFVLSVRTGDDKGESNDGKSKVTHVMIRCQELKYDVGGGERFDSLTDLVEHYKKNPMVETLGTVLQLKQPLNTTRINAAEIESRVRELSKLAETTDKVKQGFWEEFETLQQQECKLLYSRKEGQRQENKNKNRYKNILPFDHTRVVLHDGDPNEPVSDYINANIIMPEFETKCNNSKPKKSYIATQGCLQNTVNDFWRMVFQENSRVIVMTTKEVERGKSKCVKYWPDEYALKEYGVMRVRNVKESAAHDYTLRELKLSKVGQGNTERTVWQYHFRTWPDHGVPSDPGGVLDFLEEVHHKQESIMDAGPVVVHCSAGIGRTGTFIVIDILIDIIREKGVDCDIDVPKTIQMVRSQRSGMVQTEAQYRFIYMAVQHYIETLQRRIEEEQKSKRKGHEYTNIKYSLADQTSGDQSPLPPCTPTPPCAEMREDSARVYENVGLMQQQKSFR
measured-endpoint: pIC50
Lab note: report pIC50 as minus log10 of the concentration in molar units, number only.

Requested field: pIC50. Item: Cc1c(N2CCC3(CC2)CO[C@@H](C)[C@H]3N)nc(C)n(-c2cccc(Cl)c2Cl)c1=O (single isomer, unassigned) [Compound 23b]
4.92

----------
test: Pharmacokinetics in female CD1 mice (oral / intravenous); assay type: in vivo; conditions: mouse, oral
measured-endpoint: Fz
// return the numeric value with its unit appended

Requested field: Fz. Item: Cc1nc(N2CCC3(CC2)CO[C@@H](C)[C@H]3N)c(CO)nc1-c1cccc(Cl)c1Cl [RMC-4550, reference compound]
86%

Then Cc1c(N2CCC3(CC2)CO[C@@H](C)[C@H]3N)nc(C)n(-c2cccc(Cl)c2Cl)c1=O (single isomer, unassigned) [Compound 23b] ?
100%

Then Cc1c(N2CCC3(CC2)Cc2ccccc2[C@H]3N)nc(C)n(-c2cccc(Cl)c2Cl)c1=O [Compound 74a] ?
100%

Then Cc1c(N2CCC3(CC2)Cc2ncccc2[C@H]3N)nc(C)n(-c2cccc(Cl)c2Cl)c1=O (single isomer, unassigned) [Compound 66b] ?
100%

Then Cc1c(N2CCC3(CC2)Oc2ccccc2[C@H]3N)nc(C)n(-c2cccc(Cl)c2Cl)c1=O (single isomer, unassigned) [Compound 81b] ?
48%

Then Cc1nc(N2CCC3(CC2)CO[C@@H](C)[C@H]3N)cc(=O)n1-c1cccc(Cl)c1Cl (single isomer, unassigned) ?
85%
